The values you see were collected from ChEMBL document CHEMBL3352194.

reported-property: pIC50
Field pIC50 (float): negative decimal logarithm of the concentration in molar.

Specify pIC50 for CN1CC[C@H](c2ccc(Cl)cc2)[C@@H](COc2cc(F)c(S(=O)(=O)Nc3ncns3)cc2F)C1 , system Cytochrome P450 3A4 (Homo sapiens, UniProt P08684).
6.85

----------
target: CYP2C19 (Homo sapiens); assay: Inhibition of CYP2C19 (unknown origin) using omeprazole substrate at 10 uM; format: ADME; conditions: probe omeprazole
Sequence (P33261 whole entry): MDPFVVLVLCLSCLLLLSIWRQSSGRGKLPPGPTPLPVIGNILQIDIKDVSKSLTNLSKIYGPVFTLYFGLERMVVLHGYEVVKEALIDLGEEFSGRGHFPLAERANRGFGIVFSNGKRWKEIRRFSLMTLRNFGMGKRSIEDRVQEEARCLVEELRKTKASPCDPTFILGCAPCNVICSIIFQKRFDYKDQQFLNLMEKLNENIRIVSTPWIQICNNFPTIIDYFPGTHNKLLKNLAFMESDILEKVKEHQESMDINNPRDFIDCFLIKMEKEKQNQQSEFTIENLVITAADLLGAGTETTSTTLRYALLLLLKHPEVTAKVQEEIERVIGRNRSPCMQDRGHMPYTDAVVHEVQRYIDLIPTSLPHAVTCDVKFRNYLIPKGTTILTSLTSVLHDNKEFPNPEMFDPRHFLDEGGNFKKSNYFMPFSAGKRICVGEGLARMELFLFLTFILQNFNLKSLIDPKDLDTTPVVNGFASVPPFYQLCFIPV
reported-property: inhibition at 10 µM
Remember to quote the unit after the number.

Tell us which inhibition at 10 µM value is on record for O=S(=O)(Nc1ccncn1)c1cc(F)c(OC[C@@H]2CNCC[C@H]2c2ccc(Cl)cc2)cc1F (relative stereo)
72%

Tell us which inhibition at 10 µM value is on record for O=S(=O)(Nc1ncns1)c1cc(F)c(OC[C@@H]2CCNC[C@H]2c2ccc(F)cc2)cc1F (relative stereo)
69%

Tell us which inhibition at 10 µM value is on record for O=S(=O)(Nc1ncns1)c1cc(F)c(OCC2(F)CNCCC2c2ccc(F)cc2)cc1F (stereo not drawn)
71%

----------
So I've got a bunch of compounds here, and I need their inhibition at 10 µM values.
molecular target: CYP2D6 (Homo sapiens, UniProt P10635); assay: Inhibition of CYP2D6 (unknown origin) using bufuralol substrate at 10 uM; format: ADME; conditions: probe bufuralol
Sequence (P10635 whole entry): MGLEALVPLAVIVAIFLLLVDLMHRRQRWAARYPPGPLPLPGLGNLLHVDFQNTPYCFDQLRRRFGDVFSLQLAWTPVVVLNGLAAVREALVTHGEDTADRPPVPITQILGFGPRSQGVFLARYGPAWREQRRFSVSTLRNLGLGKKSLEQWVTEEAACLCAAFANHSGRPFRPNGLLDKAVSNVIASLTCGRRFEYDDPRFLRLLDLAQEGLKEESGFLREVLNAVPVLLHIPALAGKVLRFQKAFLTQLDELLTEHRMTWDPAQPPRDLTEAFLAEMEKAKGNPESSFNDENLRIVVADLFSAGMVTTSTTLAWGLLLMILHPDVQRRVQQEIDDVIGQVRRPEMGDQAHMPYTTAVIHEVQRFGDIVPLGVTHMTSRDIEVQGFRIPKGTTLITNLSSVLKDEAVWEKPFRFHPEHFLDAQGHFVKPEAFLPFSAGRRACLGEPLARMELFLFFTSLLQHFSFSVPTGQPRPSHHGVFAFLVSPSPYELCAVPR
All answers are understood in %, so give the number only.

Specify inhibition at 10 µM for Cc1cnc(NS(=O)(=O)c2cc(F)c(OC[C@@H]3CNCC[C@H]3c3ccc(Cl)cc3)cc2F)s1 (relative stereo) , system CYP2D6 (Homo sapiens, UniProt P10635).
48

Specify inhibition at 10 µM for O=S(=O)(Nc1nncs1)c1cc(F)c(OC[C@@H]2CNCC[C@H]2c2ccc(Cl)cc2)cc1F (relative stereo) , system CYP2D6 (Homo sapiens, UniProt P10635).
54

Specify inhibition at 10 µM for O=S(=O)(Nc1ncns1)c1cc(F)c(OC[C@@H]2CNCC[C@H]2c2ccc(Cl)cc2)cc1F (racemic) , system CYP2D6 (Homo sapiens, UniProt P10635).
93

Specify inhibition at 10 µM for O=S(=O)(Nc1cccnn1)c1cc(F)c(OC[C@@H]2CNCC[C@H]2c2ccc(Cl)cc2)cc1F (relative stereo) , system CYP2D6 (Homo sapiens, UniProt P10635).
37

----------
biological target: Sodium channel protein type 9 subunit alpha (Homo sapiens, UniProt Q15858); assay: Inhibition of human Nav1.7 expressed in HEK cells assessed as reduction in sodium current at -60 mV holding potential by PatchXpress platform based whole cell patch clamp electrophysiological assay
Sequence (Q15858 whole entry): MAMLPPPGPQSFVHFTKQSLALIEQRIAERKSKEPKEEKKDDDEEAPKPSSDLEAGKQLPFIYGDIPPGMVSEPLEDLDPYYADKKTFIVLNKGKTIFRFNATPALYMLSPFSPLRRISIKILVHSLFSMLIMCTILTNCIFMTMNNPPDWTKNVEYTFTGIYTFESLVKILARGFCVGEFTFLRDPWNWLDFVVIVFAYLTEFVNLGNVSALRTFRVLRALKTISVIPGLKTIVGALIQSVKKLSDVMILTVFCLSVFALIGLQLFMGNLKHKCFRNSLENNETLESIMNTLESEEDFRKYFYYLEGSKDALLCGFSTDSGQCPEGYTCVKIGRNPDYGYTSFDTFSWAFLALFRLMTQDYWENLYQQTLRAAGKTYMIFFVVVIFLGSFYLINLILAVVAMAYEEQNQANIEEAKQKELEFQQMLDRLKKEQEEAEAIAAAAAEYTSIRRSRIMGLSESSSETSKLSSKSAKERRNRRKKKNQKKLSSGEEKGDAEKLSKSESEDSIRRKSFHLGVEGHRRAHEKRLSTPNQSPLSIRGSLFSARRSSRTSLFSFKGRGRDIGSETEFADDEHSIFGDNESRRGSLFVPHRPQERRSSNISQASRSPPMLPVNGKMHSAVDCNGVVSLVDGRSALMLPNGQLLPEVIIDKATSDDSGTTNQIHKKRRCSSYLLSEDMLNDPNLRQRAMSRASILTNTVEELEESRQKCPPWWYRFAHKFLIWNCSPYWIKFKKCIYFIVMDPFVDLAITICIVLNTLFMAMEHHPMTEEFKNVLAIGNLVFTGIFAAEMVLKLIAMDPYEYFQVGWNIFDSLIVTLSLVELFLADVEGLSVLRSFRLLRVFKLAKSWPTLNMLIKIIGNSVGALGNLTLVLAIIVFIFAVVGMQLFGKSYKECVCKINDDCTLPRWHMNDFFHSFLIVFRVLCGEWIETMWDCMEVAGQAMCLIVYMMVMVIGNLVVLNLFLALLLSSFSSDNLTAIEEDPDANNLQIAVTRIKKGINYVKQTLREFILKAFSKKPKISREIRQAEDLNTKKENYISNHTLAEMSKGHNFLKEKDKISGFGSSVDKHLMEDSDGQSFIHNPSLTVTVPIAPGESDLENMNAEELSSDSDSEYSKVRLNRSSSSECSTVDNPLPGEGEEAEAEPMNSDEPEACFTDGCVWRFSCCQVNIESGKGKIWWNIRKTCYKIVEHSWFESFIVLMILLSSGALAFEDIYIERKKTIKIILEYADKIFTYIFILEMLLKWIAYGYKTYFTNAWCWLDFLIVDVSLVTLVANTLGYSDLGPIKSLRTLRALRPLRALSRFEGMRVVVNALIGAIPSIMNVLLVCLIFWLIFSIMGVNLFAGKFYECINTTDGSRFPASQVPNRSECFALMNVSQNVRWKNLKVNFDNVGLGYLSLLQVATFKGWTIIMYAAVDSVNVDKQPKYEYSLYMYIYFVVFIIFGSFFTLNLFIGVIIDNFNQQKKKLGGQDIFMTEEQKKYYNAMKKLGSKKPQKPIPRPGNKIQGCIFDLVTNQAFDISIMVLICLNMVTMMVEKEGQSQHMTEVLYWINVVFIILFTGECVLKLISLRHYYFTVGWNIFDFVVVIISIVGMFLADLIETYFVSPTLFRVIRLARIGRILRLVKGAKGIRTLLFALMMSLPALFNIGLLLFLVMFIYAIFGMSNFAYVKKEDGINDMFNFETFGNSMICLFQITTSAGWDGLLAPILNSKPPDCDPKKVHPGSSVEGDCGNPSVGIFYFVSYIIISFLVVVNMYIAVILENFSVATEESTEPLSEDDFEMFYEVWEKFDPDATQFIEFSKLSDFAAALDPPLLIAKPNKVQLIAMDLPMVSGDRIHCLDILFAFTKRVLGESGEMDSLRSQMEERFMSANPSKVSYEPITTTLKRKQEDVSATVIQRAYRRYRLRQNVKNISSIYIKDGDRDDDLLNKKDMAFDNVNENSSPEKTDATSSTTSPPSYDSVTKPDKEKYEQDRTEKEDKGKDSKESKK
So I've got a bunch of compounds here, and I need their IC50 values.
All answers are understood in nM, so give the number only.

Specify IC50 for O=S(=O)(Nc1ncns1)c1cc(F)c(OC[C@@H]2CN(CCF)CC[C@H]2c2ccc(Cl)cc2)cc1F , system Sodium channel protein type 9 subunit alpha (Homo sapiens, UniProt Q15858).
7

Specify IC50 for O=S(=O)(Nc1ncns1)c1cc(F)c(OC[C@@H]2CCNC[C@H]2c2ccc(F)cc2)cc1F (relative stereo) , system Sodium channel protein type 9 subunit alpha (Homo sapiens, UniProt Q15858).
32

Specify IC50 for O=S(=O)(Nc1ncns1)c1cc(F)c(OC[C@@H]2CNC[C@H]2c2ccc(Cl)cc2)cc1F (relative stereo) , system Sodium channel protein type 9 subunit alpha (Homo sapiens, UniProt Q15858).
50

Specify IC50 for O=S(=O)(Nc1ncns1)c1cc(F)c(OC[C@@H]2CNCC[C@H]2c2ccccc2)cc1F (relative stereo) , system Sodium channel protein type 9 subunit alpha (Homo sapiens, UniProt Q15858).
7.9
